# assayed_system: 5-Lipoxygenase (Homo sapiens)
# Sequence (P09917 whole entry): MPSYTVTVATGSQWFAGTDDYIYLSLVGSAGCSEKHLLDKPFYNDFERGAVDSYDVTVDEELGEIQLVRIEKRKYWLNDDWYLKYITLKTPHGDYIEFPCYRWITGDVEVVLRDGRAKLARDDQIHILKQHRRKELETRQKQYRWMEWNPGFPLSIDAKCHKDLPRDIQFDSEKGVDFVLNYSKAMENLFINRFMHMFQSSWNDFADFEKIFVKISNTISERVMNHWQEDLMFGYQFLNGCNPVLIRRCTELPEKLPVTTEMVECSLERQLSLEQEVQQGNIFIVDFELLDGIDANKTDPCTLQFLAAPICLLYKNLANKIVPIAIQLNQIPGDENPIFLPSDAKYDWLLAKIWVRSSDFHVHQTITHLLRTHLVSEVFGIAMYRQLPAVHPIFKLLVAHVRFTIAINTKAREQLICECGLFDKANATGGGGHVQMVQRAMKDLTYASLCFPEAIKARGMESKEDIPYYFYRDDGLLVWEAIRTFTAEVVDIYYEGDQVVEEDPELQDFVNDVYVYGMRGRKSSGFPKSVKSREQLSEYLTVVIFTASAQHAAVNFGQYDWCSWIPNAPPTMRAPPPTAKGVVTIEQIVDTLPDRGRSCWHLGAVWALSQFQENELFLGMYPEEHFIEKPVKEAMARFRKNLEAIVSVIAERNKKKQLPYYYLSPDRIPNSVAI
# assay_comment: Calcium ionophore-induced LTB4 biosynthesis in human whole blood
# condition_label: human heparinized whole blood, 15 min preincubation at 37° C., A23187 8.3 μM, 30 min, LTB4 by radioimmunoassay; read-out: IC50 against 5-Lipoxygenase from Stimulated LTB4 Formation in Human Whole Blood
# Description: Inhibition of leukotriene biosynthesis was evaluated in an assay, involving calcium ionophore-induced LTB4 biosynthesis expressed human whole blood. […] The methanol extract was analyzed for LTB4 using a commercially available radioimmunoassay.
pIC50: −log10 of the molar value.
measured_attribute: pIC50

compound: NC(=O)N(O)CC1CCCCC1 [Example 4, N-hydroxy-N-1-(1-cyclohexyl)methylurea]
prefix_operator: =
value_reported: 5.96
--
compound: NC(=O)N(O)CC1CCC1 [Example 2, N-cyclobutylmethyl-N-hydroxyurea]
prefix_operator: =
value_reported: 6.05
--
compound: NC(=O)N(O)CC1CCCCCC1 [Example 5, N-hydroxy-N-1-(1-cycloheptyl)methylurea]
prefix_operator: >
value_reported: 5.82
--
compound: NC(=O)N(O)CC1CCCC1 [Example 3, N-cyclopentylmethyl-N-hydroxyurea]
prefix_operator: =
value_reported: 6.15
--
compound: NC(=O)N(O)C[C@H]1C[C@@H]1C1CC1 (relative stereo)
prefix_operator: >
value_reported: 6.52
